test system: COXV B3; assay: CPE reduction assay, COXV B3; type: cell-based; settings: Huh-7, COXV B3, strain Nancy, Huh7 cells
assay_metric: pEC50
Worth noting: pEC50 values are minus log10 of concentrations stated in mol/L.

The recorded pEC50 for entry `CC(C)(C)C(=O)OCOP(=O)(OCOC(=O)C(C)(C)C)OC[C@H]1O[C@@H](n2ccc(=O)[nH]c2=S)[C@](C)(O)[C@@H]1O` equals 6.42

----------
system: COXV B1; experiment: CPE reduction assay, COXV B1; assay type: cell-based; conditions: Huh-7; COXV B1, strain Conn5, Huh7 cells
pEC50: −log10 of the molar value.
assay_metric: pEC50

Entry `CC(C)(C)C(=O)OCOP(=O)(OCOC(=O)C(C)(C)C)OC[C@H]1O[C@@H](n2ccc(=O)[nH]c2=S)[C@](C)(O)[C@@H]1O` , COXV B1 data, pEC50 value: < 4.51

----------
target: human DNA polymerase beta (Homo sapiens (Human), UniProt P06746); assay: Human DNA polymerase inhibition assay, pol beta; conditions: read-out: Human DNA pol β (IC50 uM)
assay_metric: IC50 (µM)
All answers are understood in µM, so give the number only.

In plain terms, CC1(O)[C@@H](O)[C@@H](COP(=O)(O)OP(=O)(O)OP(=O)(O)O)O[C@H]1n1ccc(=O)[nH]c1=S (stereo partly shown) has a documented IC50 of 588

----------
test: Cytotoxicity in Huh-7 cells (DNA virus table); type: cell-based; conditions: human, Huh-7 cells; beside Adenovirus
assay_metric: CC50

Notebook: CC(C)OC(=O)[C@H](C)NP(=O)(OC[C@H]1O[C@@H](n2ccc(=O)[nH]c2=S)C(C)(O)[C@H]1O)Oc1ccccc1 (stereo partly shown) , CC50 read as > 100 µM

----------
test system: Huh7; assay: Cytotoxicity in Huh7 cells (enterovirus assays); details: line of COXV B1 Conn5
assay_metric: CC50 (µM)
Give the quantity in µM, number only.

For reference, reported CC50 for CC(C)(C)C(=O)OCOP(=O)(OCOC(=O)C(C)(C)C)OC[C@H]1O[C@@H](n2ccc(=O)[nH]c2=S)[C@](C)(O)[C@@H]1O [EIDD-2523] stands at 31

----------
tested on: Huh7; assay: Cytotoxicity in Huh7 cells (enterovirus assays); details: line of COXV B3 HA 201933
assay_metric: CC50
Entry format: amount then unit.

Just so you know, measured CC50 for CC(C)(C)C(=O)OCOP(=O)(OCOC(=O)C(C)(C)C)OC[C@H]1O[C@@H](n2ccc(=O)[nH]c2=S)[C@](C)(O)[C@@H]1O [EIDD-2523] came out at 46 µM

----------
experiment: Cytotoxicity in HepG2 cells (XTT); type: cell-based; settings: human, beside HBV
assay_metric: CC50

Item: CC(C)OC(=O)[C@H](C)NP(=O)(OC[C@H]1O[C@@H](n2ccc(=O)[nH]c2=S)C(C)(O)[C@H]1O)Oc1ccccc1 (stereo partly shown) | CC50: > 100 µM

----------
test: Cytotoxicity in MRC-5 cells (enterovirus assays); assay type: cell-based; conditions: human, line of EV71 H
assay_metric: CC50 (µM)
Your answer should be a plain number; it is taken to be in µM.

The value of CC50 measured for the molecule CC(C)(C)C(=O)OCOP(=O)(OCOC(=O)C(C)(C)C)OC[C@H]1O[C@@H](n2ccc(=O)[nH]c2=S)[C@](C)(O)[C@@H]1O [EIDD-2523] turned out to be 32

----------
test system: Huh7; test: Cytotoxicity in Huh7 cells (enterovirus assays); conditions: line of COXV A18 G13
assay_metric: CC50 (µM)
Field: numeric (µM). Do not append units.

Value of CC50 reported for the compound `CC(C)(C)C(=O)OCOP(=O)(OCOC(=O)C(C)(C)C)OC[C@H]1O[C@@H](n2ccc(=O)[nH]c2=S)[C@](C)(O)[C@@H]1O` is 32

----------
test: Cytotoxicity in MRC-5 cells (DNA virus table); format: cell-based; conditions: human, MRC-5 cells; beside HCMV
assay_metric: CC50

Summary for this compound, CC(C)OC(=O)[C@H](C)NP(=O)(OC[C@H]1O[C@@H](n2ccc(=O)[nH]c2=S)C(C)(O)[C@H]1O)Oc1ccccc1 (stereo partly shown) : CC50 is > 100 µM

----------
assay_metric: IC50

IC50 on human DNA polymerase gamma (Homo sapiens (Human), UniProt P54098) for CC1(O)[C@@H](O)[C@@H](COP(=O)(O)OP(=O)(O)OP(=O)(O)O)O[C@H]1n1ccc(=O)[nH]c1=S (stereo partly shown) is > 1000 µM

----------
assay: Cytotoxicity in RD cells (enterovirus assays); format: cell-based; details: human, line of EV71 Tainan/4643/98
assay_metric: CC50 (µM)
Supply the numeric figure in µM, leaving out any unit text.

Notebook: `CC(C)(C)C(=O)OCOP(=O)(OCOC(=O)C(C)(C)C)OC[C@H]1O[C@@H](n2ccc(=O)[nH]c2=S)[C@](C)(O)[C@@H]1O` , CC50 read as 50

----------
experiment: Cytotoxicity in PBM cells; type: cell-based; conditions: human, PHA-P-stimulated peripheral blood mononuclear cells (PBMCs); beside HIV
assay_metric: CC50 at 7 days

# compound CC(C)OC(=O)[C@H](C)NP(=O)(OC[C@H]1O[C@@H](n2ccc(=O)[nH]c2=S)C(C)(O)[C@H]1O)Oc1ccccc1 (stereo partly shown) ; its CC50 at 7 days = > 100 µM

----------
test: Cytotoxicity in RD cells (enterovirus assays); format: cell-based; conditions: human, line of EV68 US/KY/14-18953
assay_metric: CC50 (µM)
Kindly answer with a numeric value in µM, unit omitted.

Entry under test: `CC(C)(C)C(=O)OCOP(=O)(OCOC(=O)C(C)(C)C)OC[C@H]1O[C@@H](n2ccc(=O)[nH]c2=S)[C@](C)(O)[C@@H]1O` . Its CC50 was 91

----------
system: Huh7; experiment: Cytotoxicity in Huh7 cells (enterovirus assays); conditions: line of COXV B3 Nancy
assay_metric: CC50 (µM)
State just the number; it will be interpreted in µM.

The reported value for CC(C)(C)C(=O)OCOP(=O)(OCOC(=O)C(C)(C)C)OC[C@H]1O[C@@H](n2ccc(=O)[nH]c2=S)[C@](C)(O)[C@@H]1O [EIDD-2523] in terms of CC50 is 32

----------
molecular target: human DNA polymerase alpha (Homo sapiens (Human)); experiment: Human DNA polymerase inhibition assay, pol alpha; details: read-out: Human DNA pol α (IC50 uM)
Sequence (P09884 whole entry): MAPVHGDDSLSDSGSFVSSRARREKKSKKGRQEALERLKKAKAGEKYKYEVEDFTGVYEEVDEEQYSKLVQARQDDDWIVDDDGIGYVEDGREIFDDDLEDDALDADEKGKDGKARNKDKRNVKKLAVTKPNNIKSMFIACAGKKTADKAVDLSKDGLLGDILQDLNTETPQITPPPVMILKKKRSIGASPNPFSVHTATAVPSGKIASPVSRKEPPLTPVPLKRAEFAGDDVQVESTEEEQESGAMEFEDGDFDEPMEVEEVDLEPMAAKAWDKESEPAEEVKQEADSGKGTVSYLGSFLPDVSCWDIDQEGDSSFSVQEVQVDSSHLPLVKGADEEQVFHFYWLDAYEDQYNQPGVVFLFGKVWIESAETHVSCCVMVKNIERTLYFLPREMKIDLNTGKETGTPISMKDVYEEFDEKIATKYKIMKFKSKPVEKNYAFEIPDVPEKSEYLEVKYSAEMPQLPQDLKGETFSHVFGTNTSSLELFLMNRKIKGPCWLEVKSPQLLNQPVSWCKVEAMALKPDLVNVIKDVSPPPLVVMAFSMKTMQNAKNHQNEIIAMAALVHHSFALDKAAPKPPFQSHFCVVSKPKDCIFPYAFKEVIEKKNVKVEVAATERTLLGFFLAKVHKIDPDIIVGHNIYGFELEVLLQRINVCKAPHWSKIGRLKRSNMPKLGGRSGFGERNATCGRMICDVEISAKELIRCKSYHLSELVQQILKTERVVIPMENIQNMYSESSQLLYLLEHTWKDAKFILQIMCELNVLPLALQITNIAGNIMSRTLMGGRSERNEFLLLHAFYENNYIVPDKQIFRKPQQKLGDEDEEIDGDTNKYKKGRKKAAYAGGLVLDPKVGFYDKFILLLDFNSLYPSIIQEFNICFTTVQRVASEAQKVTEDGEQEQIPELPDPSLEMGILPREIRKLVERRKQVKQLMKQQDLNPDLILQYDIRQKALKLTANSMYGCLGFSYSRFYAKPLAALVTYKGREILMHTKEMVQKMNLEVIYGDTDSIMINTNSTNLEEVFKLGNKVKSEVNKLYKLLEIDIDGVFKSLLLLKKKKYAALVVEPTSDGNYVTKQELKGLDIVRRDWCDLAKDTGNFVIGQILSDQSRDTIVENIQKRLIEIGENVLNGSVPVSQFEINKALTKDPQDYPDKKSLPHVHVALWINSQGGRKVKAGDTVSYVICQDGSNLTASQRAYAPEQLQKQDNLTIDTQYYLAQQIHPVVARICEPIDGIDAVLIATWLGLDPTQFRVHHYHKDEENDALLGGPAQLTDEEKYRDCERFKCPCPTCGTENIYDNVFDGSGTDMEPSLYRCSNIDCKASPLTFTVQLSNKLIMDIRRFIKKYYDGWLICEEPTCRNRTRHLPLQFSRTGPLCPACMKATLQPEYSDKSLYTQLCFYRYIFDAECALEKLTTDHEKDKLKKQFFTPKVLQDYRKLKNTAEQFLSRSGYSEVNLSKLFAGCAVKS
assay_metric: IC50

The value of IC50 measured for the compound CC1(O)[C@@H](O)[C@@H](COP(=O)(O)OP(=O)(O)OP(=O)(O)O)O[C@H]1n1ccc(=O)[nH]c1=S (stereo partly shown) turned out to be > 1000 µM

----------
system: COXV A7; assay: CPE reduction assay, COXV A7; type: cell-based; settings: Huh-7; COXV A7, strain WP Parker, Huh7 cells
assay_metric: pEC50
For clarity, pEC50 is expressed as the negative log10 of concentration in mol/L.

For reference, reported pEC50 for `CC(C)(C)C(=O)OCOP(=O)(OCOC(=O)C(C)(C)C)OC[C@H]1O[C@@H](n2ccc(=O)[nH]c2=S)[C@](C)(O)[C@@H]1O` stands at 5.47

----------
test system: MRC-5 Cells; experiment: Cytotoxicity in MRC-5 cells (DNA virus table); format: cell-based; conditions: beside VZV
assay_metric: CC50

In plain terms, CC(C)OC(=O)[C@H](C)NP(=O)(OC[C@H]1O[C@@H](n2ccc(=O)[nH]c2=S)C(C)(O)[C@H]1O)Oc1ccccc1 (stereo partly shown) has a documented CC50 of > 100 µM

----------
tested on: HeLa; experiment: Cytotoxicity in HeLa cells (enterovirus assays); type: cell-based; details: line of HRV 1059
assay_metric: CC50

According to the records, this compound `CC(C)(C)C(=O)OCOP(=O)(OCOC(=O)C(C)(C)C)OC[C@H]1O[C@@H](n2ccc(=O)[nH]c2=S)[C@](C)(O)[C@@H]1O` displays CC50 of > 100 µM
